target: T1, CD3 epsilon homodimer protein (UniProt P07766 23-126); test: SPR Biacore T200, CD3e homodimer on chip, vs unaltered GLS3000 antibody
T1 construct: also called CD3 (CD3 epsilon)
T1 sequence (P07766 23-126): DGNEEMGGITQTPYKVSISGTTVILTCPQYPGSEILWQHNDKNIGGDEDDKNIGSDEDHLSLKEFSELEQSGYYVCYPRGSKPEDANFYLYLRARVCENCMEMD
Can you tell me ratio of amounts bound (Z=Y/X) for the items I'm about to list?
Form: value (number only, do not type unit).

What ratio of amounts bound (Z=Y/X) value was documented for this binder, GLS3000 Q90E (antibody, name in Kabat numbering, V domains shown, one-arm IgG as m2) VH: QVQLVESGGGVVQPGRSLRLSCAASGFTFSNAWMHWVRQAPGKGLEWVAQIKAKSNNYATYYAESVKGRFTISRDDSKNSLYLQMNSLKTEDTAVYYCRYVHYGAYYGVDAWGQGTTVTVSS VL: DIVMTQSPLSLPVTPGEPASISCRSSQSLVHSNRNTYLHWYQQKPGQAPRLLIYKVSNRFSGVPDRFSGSGSGTDFTLKISRVEAEDVGVYYCGEGTQVPYTFGQGTKLEIK ?
0.86

What ratio of amounts bound (Z=Y/X) value was documented for this binder, GLS3000 G89K (antibody, name in Kabat numbering, V domains shown, one-arm IgG as m2) VH: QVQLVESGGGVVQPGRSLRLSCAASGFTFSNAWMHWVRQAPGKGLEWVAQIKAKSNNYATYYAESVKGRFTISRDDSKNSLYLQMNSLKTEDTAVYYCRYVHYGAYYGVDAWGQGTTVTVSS VL: DIVMTQSPLSLPVTPGEPASISCRSSQSLVHSNRNTYLHWYQQKPGQAPRLLIYKVSNRFSGVPDRFSGSGSGTDFTLKISRVEAEDVGVYYCKQGTQVPYTFGQGTKLEIK ?
0.4

What ratio of amounts bound (Z=Y/X) value was documented for this binder, GLS3000 S56M (antibody, name in Kabat numbering, V domains shown, one-arm IgG as m2) VH: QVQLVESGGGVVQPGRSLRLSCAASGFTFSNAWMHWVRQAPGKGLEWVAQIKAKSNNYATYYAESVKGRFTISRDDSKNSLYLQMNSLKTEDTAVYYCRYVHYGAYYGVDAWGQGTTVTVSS VL: DIVMTQSPLSLPVTPGEPASISCRSSQSLVHSNRNTYLHWYQQKPGQAPRLLIYKVSNRFMGVPDRFSGSGSGTDFTLKISRVEAEDVGVYYCGQGTQVPYTFGQGTKLEIK ?
1.05
